- target-under-test: mouse mincle (CLEC-4E) CRD, biotin-tagged (Mus musculus, UniProt Q9R0Q8)
- Construct: minimal C-terminal carbohydrate-recognition domain (primers encode ACPLNWKHY... to ...PEISPLD) with C-terminal biotinylation tag GLNDIFEAQKIEWHE kept; immobilized on streptavidin wells
- Sequence (Q9R0Q8 80-214): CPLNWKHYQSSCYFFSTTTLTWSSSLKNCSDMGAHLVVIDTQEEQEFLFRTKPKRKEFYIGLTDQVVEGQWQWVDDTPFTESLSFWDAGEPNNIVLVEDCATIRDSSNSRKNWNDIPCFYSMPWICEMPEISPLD
- assay-comment: solid-phase competition with […]-Man-BSA reporter, CRD immobilized on streptavidin wells
measurement-name: Ki

Exercise: Look up Ki with mouse mincle (CLEC-4E) CRD, biotin-tagged (Mus musculus, UniProt Q9R0Q8) for this molecule: OC[C@H]1O[C@H](O[C@H]2O[C@H](CO)[C@@H](O)[C@H](O)[C@H]2O)[C@H](O)[C@@H](O)[C@@H]1O
Key: 540 µM
